Taken from ChEMBL document CHEMBL4177615.

# key: entry, value: selectivity ratio
tested on: hERG (KCNH2); test: Selectivity index, ratio of IC50 for inhibition of human ERG expressed in Xenopus laevis oocytes to IC50 for Plasmodium falciparum 3D7; type: toxicity, cell-based; settings: read-out: Ratio IC50
API doc: respond with a numeric literal and nothing else, no unit.

Examples from the recorded data:
[[record]]
input_smiles = "COc1ccc(CCN2CCC(Nc3nc4ccccc4n3Cc3ccc(F)cc3F)CC2)cc1"
recorded_value = 1.7

[[record]]
input_smiles = "COc1ccc(CCN2CCC(Nc3nc4ccccc4[nH]3)CC2)cc1"
recorded_value = 2.1

[[record]]
input_smiles = "CCCCCCCCn1c(NC2CCN(CCc3ccc(OC)cc3)CC2)nc2ccccc21"
recorded_value = 110

[[record]]
input_smiles = "CCCCCCCCCCn1c(NC2CCN(CCc3ccc(OC)cc3)CC2)nc2ccccc21"
recorded_value = 18.4

[[record]]
input_smiles = "COc1ccc(CCN2CCC(Nc3nc4ccccc4n3CC3CCCCC3)CC2)cc1"
recorded_value = 0.1


Okay, next one:
Reported selectivity ratio for `COc1ccc(CCN2CCC(Nc3nc4ccccc4n3CCC(C)C)CC2)cc1` : what is it? 7.6

* * *

# key: entry, value: log10 IC50
target: Voltage-gated inwardly rectifying potassium channel KCNH2 (Homo sapiens); assay: Inhibition of human ERG expressed in Xenopus laevis oocytes by two-electrode voltage clamp assay
Recorded IC50 (log10, nM)

Reported log10 IC50 for `CCCCCCCCn1c(NC2CCN(CCc3ccc(OC)cc3)CC2)nc2ccccc21` : what is it? 3.51

* * *

# key: entry, value: pIC50
molecular target: Voltage-gated inwardly rectifying potassium channel KCNH2 (Homo sapiens, UniProt Q12809); experiment: Inhibition of human ERG expressed in Xenopus laevis oocytes by two-electrode voltage clamp assay
Sequence (Q12809 whole entry): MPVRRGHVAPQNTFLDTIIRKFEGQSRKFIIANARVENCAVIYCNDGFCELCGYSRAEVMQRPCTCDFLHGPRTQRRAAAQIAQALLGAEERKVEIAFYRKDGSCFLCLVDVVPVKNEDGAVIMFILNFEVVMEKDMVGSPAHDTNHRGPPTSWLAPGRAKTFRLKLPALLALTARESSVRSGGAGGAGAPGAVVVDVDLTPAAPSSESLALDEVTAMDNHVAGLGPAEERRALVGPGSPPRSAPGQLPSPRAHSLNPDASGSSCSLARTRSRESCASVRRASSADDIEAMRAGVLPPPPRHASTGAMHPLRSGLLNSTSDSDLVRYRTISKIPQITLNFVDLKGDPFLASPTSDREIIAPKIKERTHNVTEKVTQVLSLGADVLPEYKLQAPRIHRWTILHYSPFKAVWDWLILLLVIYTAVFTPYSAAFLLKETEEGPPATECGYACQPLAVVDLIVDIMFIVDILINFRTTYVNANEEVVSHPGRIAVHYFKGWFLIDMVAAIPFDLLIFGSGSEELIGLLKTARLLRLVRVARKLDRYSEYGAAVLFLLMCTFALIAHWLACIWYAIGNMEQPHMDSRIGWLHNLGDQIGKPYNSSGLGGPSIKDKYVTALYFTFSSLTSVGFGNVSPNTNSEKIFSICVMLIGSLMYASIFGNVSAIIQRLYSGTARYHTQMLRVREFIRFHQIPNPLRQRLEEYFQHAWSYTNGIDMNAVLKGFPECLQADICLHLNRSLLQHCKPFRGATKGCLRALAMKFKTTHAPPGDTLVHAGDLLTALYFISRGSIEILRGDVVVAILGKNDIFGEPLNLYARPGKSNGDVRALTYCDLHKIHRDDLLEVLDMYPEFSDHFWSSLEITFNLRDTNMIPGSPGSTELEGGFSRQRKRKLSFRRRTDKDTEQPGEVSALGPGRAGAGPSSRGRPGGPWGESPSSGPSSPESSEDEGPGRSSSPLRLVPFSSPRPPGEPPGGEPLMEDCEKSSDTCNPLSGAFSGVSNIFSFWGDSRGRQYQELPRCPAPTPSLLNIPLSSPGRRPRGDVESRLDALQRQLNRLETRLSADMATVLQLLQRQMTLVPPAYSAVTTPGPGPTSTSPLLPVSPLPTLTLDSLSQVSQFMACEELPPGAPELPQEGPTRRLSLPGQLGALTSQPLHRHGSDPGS
pIC50 here: minus log base 10 of the concentration, concentration in moles per litre.

Examples from the recorded data:
[[record]]
input_smiles = "COc1ccc(CCN2CCC(Nc3nc4ccccc4n3CCC(C)C)CC2)cc1"
recorded_value = 6.67

[[record]]
input_smiles = "COc1ccc(CCN2CCC(Nc3nc4ccccc4n3Cc3ccc(F)cc3F)CC2)cc1"
recorded_value = 6.75

[[record]]
input_smiles = "CCCCCCCCCCn1c(NC2CCN(CCc3ccc(OC)cc3)CC2)nc2ccccc21"
recorded_value = 5.68

[[record]]
input_smiles = "COc1ccc(CCN2CCC(Nc3nc4ccccc4[nH]3)CC2)cc1"
recorded_value = 6.79


Okay, next one:
Reported pIC50 for `COc1ccc(CCN2CCC(Nc3nc4ccccc4n3CC3CCCCC3)CC2)cc1` : what is it? 8.49
